src = patent US9796706B2

Quick record of IC50 values for JNK3 (Homo sapiens (Human), UniProt P53779).

Sample answers from the record:
* Cc1csc(NC(=O)Cc2ccc(OCCn3ccnc3)cc2)c1-c1ncn[nH]1 | 100 to 10000 nM
* N#Cc1csc(NC(=O)CN2C(=O)CCc3ccccc32)c1-c1ncn[nH]1 | < 100 nM
* COc1ccc(CC(=O)Nc2ccsc2-c2nc(-c3ccncc3)n[nH]2)cc1 | > 10000 nM

(Q) # IC50 lookup, item `Cc1nnc(-c2sccc2NC(=O)Cc2cccc3ccccc23)o1`
(A) 100 to 10000 nM

(Q) Okay, and `Cc1cnc(-c2sccc2NC(=O)Cc2cccc3cnccc23)s1` ?
(A) 100 to 10000 nM

(Q) Okay, and `O=C(CN1C(=O)CCc2cnccc21)Nc1ccsc1-c1cscn1` ?
(A) 100 to 10000 nM

(Q) Okay, and `O=C(Cc1cccc2cnccc12)Nc1ccsc1-c1ncco1` ?
(A) 100 to 10000 nM

(Q) Okay, and `COc1ccc(CC(=O)Nc2ccsc2-n2cnc(C)c2)cc1` ?
(A) > 50000 nM

(Q) Okay, and `Cc1csc(NC(=O)Cc2cccc3nccnc23)c1-c1ncn[nH]1` ?
(A) 100 to 10000 nM

(Q) Okay, and `CN(C)CCn1cnc(-c2c(Cl)csc2NC(=O)Cn2c(=O)ccc3cc(C(F)(F)F)ccc32)n1` ?
(A) < 100 nM

(Q) Okay, and `O=C(Cc1ccc(F)c2cnccc12)Nc1scc(Br)c1-c1ncn[nH]1` ?
(A) < 100 nM

(Q) Okay, and `COc1ccc(CC(=O)Nc2ccsc2-c2ncn[nH]2)cc1` ?
(A) 100 to 10000 nM

(Q) Okay, and `O=C(Cn1c(=O)ccc2cnccc21)Nc1ccsc1-c1cscn1` ?
(A) 100 to 10000 nM

* * *

Quick record of pIC50 values for JNK1 (Homo sapiens (Human)).
pIC50: −log10 of the molar value.

Sample answers from the record:
• COc1ccc(CC(=O)Nc2ccsc2-c2c[nH]c(C)n2)cc1 = < 5.00
• Cc1noc(-c2c(C)csc2NC(=O)Cc2cccc3ccccc23)n1 = 5.00 to 7.00
• COc1ccc(CC(=O)Nc2ccsc2-n2cncn2)cc1 = < 5.00
• O=C(Cn1c(=O)ccc2c(F)cccc21)Nc1scc(Br)c1-c1ncn[nH]1 = > 7.00

(Q) # pIC50 lookup, item `COc1ccc(CC(=O)Nc2sccc2-c2nnn(C)n2)cc1`
(A) 5.00 to 7.00

* * *

experimental system: UniProtKB P45983
In this section, each of the compounds is paired with its reported IC50.

(Q) # IC50 lookup, item `Cn1cnc(-c2c(Cl)csc2NC(=O)Cn2c(=O)ccc3nc(C(F)(F)F)ccc32)n1`
(A) < 100 nM

* * *

Quick record of pIC50 values for JNK2 (Homo sapiens (Human), UniProt P45984).
pIC50: −log10 of the molar value.

Sample answers from the record:
• Cn1ncnc1-c1sccc1NC(=O)Cc1cccc2ccccc12 = < 4.30
• O=C(Cc1ccc(OCCCN2CCCCC2)cc1)Nc1ccsc1-c1cscn1 = 5.00 to 7.00
• O=C(CN1C(=O)CCc2cnccc21)Nc1scc(Br)c1-c1ncn[nH]1 = > 7.00
• Cc1csc(NC(=O)Cc2cccc3ncccc23)c1-c1ncn[nH]1 = 5.00 to 7.00
• Cc1n[nH]c(-c2c(C)csc2NC(=O)Cc2cccc3ncccc23)n1 = 5.00 to 7.00
• O=C(Cc1cccc2cccnc12)Nc1scc(Br)c1-c1ncn[nH]1 = 5.00 to 7.00
• Cn1ccc(-c2sccc2NC(=O)Cc2cccc3ccccc23)n1 = < 4.30
• O=C(CN1C(=O)CCc2ncccc21)Nc1scc(Br)c1-c1ncn[nH]1 = > 7.00

(Q) # pIC50 lookup, item `N#Cc1csc(NC(=O)Cc2cccc3ncccc23)c1-c1nnc[nH]1`
(A) > 7.00

(Q) Okay, and `Cn1cnc(-c2c(C#N)csc2NC(=O)Cc2cccc3ncccc23)n1` ?
(A) > 7.00

(Q) Okay, and `O=C(Cc1cccc2ccccc12)Nc1ccsc1-c1cc[nH]n1` ?
(A) < 4.30
